Provenance of the data: the supplement of paper PMC6609913

test system: V-C8 (BRCA2-deficient hamster cells); assay: normalised cell viability (fraction of plate median); higher = more viable cells (less toxic); conditions: treatment time: 6 days; 5 µM
Counter-ions that a name gives are not always drawn. The full ranking holds about 1,300 compounds; the median of “normalised cell viability” is about 1, and the lowest 2% start at about 0.14. The full list was thinned out, with the lowest values kept by preference.
measure-name: normalised cell viability
// keep it numeric: no unit symbol after the value

Example results:
Clc1ccc(C(Cn2ccnc2)OCc2csc3c(Cl)cccc23)c(Cl)c1 (stereo not drawn) [Sertaconazole nitrate]; 0.821
O=C(O)c1cc(/N=N/c2ccc(S(=O)(=O)Nc3ccccn3)cc2)ccc1O; 0.993
Clc1ccc(C(Cn2ccnc2)OCc2c(Cl)cccc2Cl)c(Cl)c1 (stereo not drawn); 1.09
CCN(CC)C(=O)Nc1ccc(OCC(O)CNC(C)(C)C)c(C(C)=O)c1 (stereo not drawn) [Celiprolol HCl]; 0.988
CC(=O)O[C@]1(C(C)=O)CC[C@H]2[C@@H]3C=C(Cl)C4=CC(=O)CC[C@]4(C)[C@H]3CC[C@@]21C [Chlormadinone acetate]; 0.983
C=C(CC)C(=O)c1ccc(OCC(=O)O)c(Cl)c1Cl; 1.01
CS(=O)(=O)c1ccc(C2=C(c3ccccc3)C(=O)OC2)cc1; 1.02

// switching to the query compound
Give normalised cell viability only, for CCN(CC)CCc1nc(-c2ccccc2)no1 [Oxalamine citrate salt] , using V-C8 (BRCA2-deficient hamster cells) data. 0.933
